Source listed as the supplement of paper PMC7214452.

- System: AMO1 (cancer type: MM)
- assay: normalized area under the dose-response curve (viability relative to DMSO control) (fraction); higher = less sensitive (more viable cells)
- experimental_setup: exposure time not given
observed_property: normalized area under the dose-response curve
A bare number is all that is needed in reply.

The compound identified as `Cc1sc2c(c1C)C(c1ccc(Cl)cc1)=N[C@@H](CC(=O)Nc1ccc(O)cc1)c1nnc(C)n1-2` registered its normalized area under the dose-response curve at 0.497

The compound identified as `Nc1nc(Cl)nc2c1ncn2[C@@H]1O[C@H](CO)[C@@H](O)[C@@H]1F` registered its normalized area under the dose-response curve at 0.489

The compound identified as `Cc1cc(Nc2ncc(Cl)c(Nc3ccccc3S(=O)(=O)C(C)C)n2)c(OC(C)C)cc1C1CCNCC1` registered its normalized area under the dose-response curve at 0.355

The compound identified as `CC[C@H](Nc1ncnc2[nH]cnc12)c1nc2cccc(F)c2c(=O)n1-c1ccccc1` registered its normalized area under the dose-response curve at 0.831

====

For each record, write down the corresponding normalized area under the dose-response curve.
- Tested on: My-La (cancer type: TCL)
- assay: normalized area under the dose-response curve (viability relative to DMSO control) (fraction); higher = less sensitive (more viable cells)
- experimental_setup: exposure time not given
Structures can show the parent of a compound that is named as a salt.
A bare number is all that is needed in reply.

The compound identified as C[C@@H](Oc1cc(-c2cnn(C3CCNCC3)c2)cnc1N)c1c(Cl)ccc(F)c1Cl [Crizotinib] registered its normalized area under the dose-response curve at 0.744

The compound identified as CO[C@H]1C[C@@H]2CC[C@@H](C)[C@@](O)(O2)C(=O)C(=O)N2CCCC[C@H]2C(=O)O[C@H]([C@H](C)C[C@@H]2CC[C@@H](OC(=O)C(C)(CO)CO)[C@H](OC)C2)CC(=O)[C@H](C)/C=C(\C)[C@@H](O)[C@@H](OC)C(=O)[C@H](C)C[C@H](C)/C=C/C=C/C=C/1C [Temsirolimus] registered its normalized area under the dose-response curve at 0.764

The compound identified as COc1cc2nccc(Oc3ccc(NC(=O)C4(C(=O)Nc5ccc(F)cc5)CC4)cc3)c2cc1OC [Cabozantinib] registered its normalized area under the dose-response curve at 0.94

The compound identified as O=C(CCCCCCC(=O)Nc1ccccc1)NO [Vorinostat] registered its normalized area under the dose-response curve at 0.672

The compound identified as CC(=O)c1c(C)c2cnc(Nc3ccc(N4CCNCC4)cn3)nc2n(C2CCCC2)c1=O [Palbociclib] registered its normalized area under the dose-response curve at 0.745

The compound identified as C#Cc1cccc(Nc2ncnc3cc(OCCOC)c(OCCOC)cc23)c1 [Erlotinib hydrochloride] registered its normalized area under the dose-response curve at 0.972

====

- Test system: SR-786 (cancer type: TCL)
- assay: normalized area under the dose-response curve (viability relative to DMSO control) (fraction); higher = less sensitive (more viable cells)
- experimental_setup: exposure time not given
Structures can show the parent of a compound that is named as a salt.
The label depends only on normalized area under the dose-response curve: 1 (yes) if it is at least 0.8, 0 (no) if it is smaller.

Confirm if normalized area under the dose-response curve reported for the compound `Cc1cn(-c2cc(NC(=O)c3ccc(C)c(Nc4nccc(-c5cccnc5)n4)c3)cc(C(F)(F)F)c2)cn1` is 0.8 or above.
1 (yes)

Confirm if normalized area under the dose-response curve reported for the compound `CO[C@H]1C[C@@H]2CC[C@@H](C)[C@@](O)(O2)C(=O)C(=O)N2CCCC[C@H]2C(=O)O[C@H]([C@H](C)C[C@@H]2CC[C@@H](OCCO)[C@H](OC)C2)CC(=O)[C@H](C)/C=C(\C)[C@@H](O)[C@@H](OC)C(=O)[C@H](C)C[C@H](C)/C=C/C=C/C=C/1C` is 0.8 or above.
0 (no)

Confirm if normalized area under the dose-response curve reported for the compound C#Cc1cccc(Nc2ncnc3cc(OCCOC)c(OCCOC)cc23)c1 [Erlotinib hydrochloride] is 0.8 or above.
1 (yes)

Confirm if normalized area under the dose-response curve reported for the compound `Nc1ncn([C@H]2C[C@H](O)[C@@H](CO)O2)c(=O)n1` is 0.8 or above.
1 (yes)

Confirm if normalized area under the dose-response curve reported for the compound `COc1cc(C(=O)O)ccc1NC(=O)[C@@H]1N[C@@H](CC(C)(C)C)[C@](C#N)(c2ccc(Cl)cc2F)[C@H]1c1cccc(Cl)c1F` is 0.8 or above.
1 (yes)

Confirm if normalized area under the dose-response curve reported for the compound `CCCS(=O)(=O)Nc1ccc(F)c(C(=O)c2c[nH]c3ncc(-c4ccc(Cl)cc4)cc23)c1F` is 0.8 or above.
1 (yes)

Confirm if normalized area under the dose-response curve reported for the compound `N#CC[C@H](C1CCCC1)n1cc(-c2ncnc3[nH]ccc23)cn1` is 0.8 or above.
1 (yes)

Confirm if normalized area under the dose-response curve reported for the compound `Cc1cc(Nc2ncc(Cl)c(Nc3ccccc3S(=O)(=O)C(C)C)n2)c(OC(C)C)cc1C1CCNCC1` is 0.8 or above.
0 (no)

Confirm if normalized area under the dose-response curve reported for the compound `COc1cc2/c(=N/c3ccc(Br)cc3F)nc[nH]c2cc1OCC1CCN(C)CC1` is 0.8 or above.
1 (yes)

Confirm if normalized area under the dose-response curve reported for the compound `CC(C)C[C@H](NC(=O)[C@H](CCc1ccccc1)NC(=O)CN1CCOCC1)C(=O)N[C@@H](Cc1ccccc1)C(=O)N[C@@H](CC(C)C)C(=O)[C@@]1(C)CO1` is 0.8 or above.
0 (no)

Confirm if normalized area under the dose-response curve reported for the compound Cn1c(CCCC(=O)O)nc2cc(N(CCCl)CCCl)ccc21 [Bendamustine hydrochloride] is 0.8 or above.
0 (no)

Confirm if normalized area under the dose-response curve reported for the compound `CO[C@H]1C[C@@H]2CC[C@@H](C)[C@@](O)(O2)C(=O)C(=O)N2CCCC[C@H]2C(=O)O[C@H]([C@H](C)C[C@@H]2CC[C@@H](OC(=O)C(C)(CO)CO)[C@H](OC)C2)CC(=O)[C@H](C)/C=C(\C)[C@@H](O)[C@@H](OC)C(=O)[C@H](C)C[C@H](C)/C=C/C=C/C=C/1C` is 0.8 or above.
0 (no)

====

- Tested on: L363 (cancer type: MM)
- assay: normalized area under the dose-response curve (viability relative to DMSO control) (fraction); higher = less sensitive (more viable cells)
- experimental_setup: exposure time not given
Counter-ions that a name gives are not always drawn.
observed_property: normalized area under the dose-response curve
A bare number is all that is needed in reply.

The compound identified as `Cc1[nH]c2ccccc2c1CCNCc1ccc(/C=C/C(=O)NO)cc1` registered its normalized area under the dose-response curve at 0.613

The compound identified as `CC(=O)O[C@H]1C(=O)[C@@]2(C)[C@H]([C@H](OC(=O)c3ccccc3)[C@]3(O)C[C@H](OC(=O)[C@H](O)[C@@H](NC(=O)c4ccccc4)c4ccccc4)C(C)=C1C3(C)C)[C@]1(OC(C)=O)CO[C@@H]1C[C@@H]2O` registered its normalized area under the dose-response curve at 0.726

The compound identified as `Nc1nc(Cl)nc2c1ncn2[C@H]1C[C@H](O)[C@@H](CO)O1` registered its normalized area under the dose-response curve at 0.826

The compound identified as `CC1(COc2ccc3c(c2)ncn3-c2ccc3cccc(N4CCC(N)CC4)c3n2)COC1` registered its normalized area under the dose-response curve at 0.459

The compound identified as O=P1(N(CCCl)CCCl)NCCCO1 (stereo unspecified) [Cyclophosphamide] registered its normalized area under the dose-response curve at 0.831

The compound identified as `CC(=O)c1c(C)c2cnc(Nc3ccc(N4CCNCC4)cn3)nc2n(C2CCCC2)c1=O` registered its normalized area under the dose-response curve at 0.743

The compound identified as `COc1cc(Nc2ncc3c(n2)-c2ccc(Cl)cc2C(c2c(F)cccc2OC)=NC3)ccc1C(=O)O` registered its normalized area under the dose-response curve at 0.872

The compound identified as `Cc1cc(Nc2ncc(Cl)c(Nc3ccccc3S(=O)(=O)C(C)C)n2)c(OC(C)C)cc1C1CCNCC1` registered its normalized area under the dose-response curve at 0.352

The compound identified as Cc1ccc(Nc2nccc(N(C)c3ccc4c(C)n(C)nc4c3)n2)cc1S(N)(=O)=O [Pazopanib hydrochloride] registered its normalized area under the dose-response curve at 0.666

The compound identified as `O=C(CCCCCCC(=O)Nc1ccccc1)NO` registered its normalized area under the dose-response curve at 0.635

The compound identified as `CC(=O)Nc1cccc(-n2c(=O)n(C3CC3)c(=O)c3c(Nc4ccc(I)cc4F)n(C)c(=O)c(C)c32)c1` registered its normalized area under the dose-response curve at 0.835

The compound identified as `CC(C)(C)c1cc(NC(=O)Nc2ccc(-c3cn4c(n3)sc3cc(OCCN5CCOCC5)ccc34)cc2)no1` registered its normalized area under the dose-response curve at 0.751

The compound identified as Cn1c(CCCC(=O)O)nc2cc(N(CCCl)CCCl)ccc21 [Bendamustine hydrochloride] registered its normalized area under the dose-response curve at 0.84

The compound identified as `C[C@@H](Oc1cc(-c2cnn(C3CCNCC3)c2)cnc1N)c1c(Cl)ccc(F)c1Cl` registered its normalized area under the dose-response curve at 0.447

The compound identified as `Nc1nc(Cl)nc2c1ncn2[C@@H]1O[C@H](CO)[C@@H](O)[C@@H]1F` registered its normalized area under the dose-response curve at 0.667

The compound identified as `COc1cc2nccc(Oc3ccc(NC(=O)NC4CC4)c(Cl)c3)c2cc1C(N)=O` registered its normalized area under the dose-response curve at 0.88
